// data source = patent US20230374150A1

# target system: T1, Human PSMA antigen (human, UniProt Q04609 44-750, limits assumed)
# T1 construct: This is the antigen immobilised on the Biacore chip; also called FOLH1_HUMAN
# T1 sequence (Q04609 44-750 limits assumed): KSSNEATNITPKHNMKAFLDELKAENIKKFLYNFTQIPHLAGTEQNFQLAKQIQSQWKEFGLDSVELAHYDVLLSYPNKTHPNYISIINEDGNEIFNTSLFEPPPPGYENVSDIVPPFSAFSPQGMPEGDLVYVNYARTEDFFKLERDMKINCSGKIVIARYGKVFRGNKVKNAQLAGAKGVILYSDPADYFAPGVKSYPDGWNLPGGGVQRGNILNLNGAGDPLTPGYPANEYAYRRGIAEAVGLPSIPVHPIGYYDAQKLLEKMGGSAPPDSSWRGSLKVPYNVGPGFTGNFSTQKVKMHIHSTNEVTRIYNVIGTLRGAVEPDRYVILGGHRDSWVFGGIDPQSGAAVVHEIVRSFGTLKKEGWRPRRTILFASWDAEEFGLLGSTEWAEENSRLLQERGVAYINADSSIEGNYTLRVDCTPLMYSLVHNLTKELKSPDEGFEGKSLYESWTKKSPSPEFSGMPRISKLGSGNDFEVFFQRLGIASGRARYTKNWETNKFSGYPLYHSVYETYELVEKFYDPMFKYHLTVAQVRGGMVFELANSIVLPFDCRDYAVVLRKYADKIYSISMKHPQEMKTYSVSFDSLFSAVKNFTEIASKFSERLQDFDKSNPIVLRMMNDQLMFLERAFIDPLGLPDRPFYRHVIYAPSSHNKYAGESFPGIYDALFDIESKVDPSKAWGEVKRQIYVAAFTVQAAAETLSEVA
# protocol: SPR (Biacore), 37 C, antibody over immobilized PSMA

binder | Kd
huJ591 (J591_VH-1 + J591_VL-2) (antibody, human IgG1, V domains shown, One of the 9 huJ591 versions; Human IgG1 frameworks) VH: QVQLVQSGAEVKKPGASVKVSCKASGYTFTEYTMHWVRQAPGQGLEWMGNINPNNGGTTYAQKFQGRVTMTRDKSISTAYMELSRLRSDDTAVYYCAAGWNFDYWGQGTLVTVSS VL: DIQLTQSPSFLSASVGDRVTITCRASQDVGTALDWYQQKPGKAPKLLIYWASTRHSGVPSRFSGSGSGTEFTLTISSLQPEDFATYYCQQYNSYPLTFGQGTKLEIK | 4.86 nM
huJ591 (J591_VH-2 + J591_VL-1) (antibody, human IgG1, V domains shown, One of the 9 huJ591 versions; Human IgG1 frameworks) VH: QVQLVQSGAEVKKPGASVKVSCKASGYTFTEYTMHWVRQAPGQGLEWMGNINPNNGGTTYNQKFQGRVTMTVDKSISTAYMELSRLRSDDTAVYYCAAGWNFDYWGQGTLVTVSS VL: DIQLTQSPSFLSASVGDRVTITCRASQDVGTALDWYQQKPGKAPKLLIYWASTLHSGVPSRFSGSGSGTEFTLTISSLQPEDFATYYCQQYNSYPLTFGQGTKLEIK | 3.54 nM
